tested on: c-di-GMP G-quadruplex; assay: Induction of c-di-GMP G-quadruplex formation in Pseudomonas aeruginosa PAO1 harboring wspF gene mutation assessed as inhibition of biofilm formation at 1.25 uM incubated for 20 hrs by crystal violet staining assay relative to control; type: nucleic-acid assay
Metric Name: inhibition (%)
Give just the number in %; leave the unit off.

// known answers, use as guide
                            compound_smiles  metric_name  observed_value
0      COc1cc(/C=C/c2ccc3ccccc3[n+]2C)ccc1O   inhibition              21
1   C[n+]1c(/C=C/c2ccc(O)c(F)c2)ccc2ccccc21   inhibition            4.21
2  C[n+]1c(/C=C/c2ccc(N3CCOCC3)cc2)ccc2ccccc21   inhibition            1.18

inhibition lookup needed for C[n+]1c(/C=C/c2cccc(O)c2)ccc2ccccc21 , thanks.
29.4

And then C[n+]1c(/C=C/c2cc[nH]c2)sc2ccccc21 , what is it?
17.7

And then CN1CCN(c2ccc(/C=C/c3ccc4ccccc4[n+]3C)cc2)CC1 , what is it?
-2.34

And then CN(C)c1ccc(/C=C/c2sc3ccccc3[n+]2C)cc1 , what is it?
-2.67

And then C[n+]1c(/C=C/c2ccc(O)c(O)c2)sc2ccccc21 , what is it?
21.7

And then C[n+]1c(/C=C/c2ccc(F)cc2)sc2ccccc21 , what is it?
7.72

And then C[n+]1c(/C=C/c2ccc(N)cc2)sc2ccccc21 , what is it?
14.5

And then C[n+]1c(/C=C/c2ccncc2)ccc2ccccc21 , what is it?
13

----------
test: Cytotoxicity against human AC16 cells assessed as cell survival at 0.15625 to 10 uM incubated for 24 hrs by MTT assay relative to control; type: cell-based, AC16 [Human hybrid]; details: dose 0.15625-10 µM, read-out: Survival
Metric Name: viability at 24 h, up to 10 µM

viability at 24 h, up to 10 µM lookup needed for COc1cc(/C=C/c2sc3ccccc3[n+]2C)ccc1O.[I-] , thanks.
> 90%

----------
test system: Quadruplex DNA; test: Induction of c-di-GMP G-quadruplex formation (unknown origin) measured at 300 nanometer by CD spectroscopy; type: nucleic-acid assay
Activity calls are given as the source filed them. The rule behind the calls is not given here.
Respond only with the outcome that fits, drawn from class 1 (active), class 0 (inactive)

In [3]: df
Out[3]:
                            compound_smiles  category
0  COc1cc(/C=C/c2sc3ccccc3[n+]2C)ccc1O.[I-]   class 1
1      C[n+]1c(/C=C/c2cccc(O)c2)ccc2ccccc21   class 1
2    CN(C)c1ccc(/C=C/c2ccc3ccccc3[n+]2C)cc1   class 0
3          C[n+]1c(/C=C/c2cnccn2)sc2ccccc21   class 0
4  C[n+]1c(/C=C/c2ccc(N3CCOCC3)cc2)sc2ccccc21   class 0

Query: recorded result category for COc1ccc(/C=C/c2ccc3ccccc3[n+]2C)cc1 in this test
class 0

And then C[n+]1c(/C=C/c2ccc(N)cc2)ccc2ccccc21 , what is it?
class 1

----------
experiment: Cytotoxicity against human AC16 cells assessed as cell survival at 1.25 uM incubated for 24 hrs by MTT assay relative to control; format: cell-based, AC16 [Human hybrid]; conditions: read-out: Survival
Metric Name: viability at 24 h, 1.25 µM (%)
Give just the number in %; leave the unit off.

viability at 24 h, 1.25 µM lookup needed for COc1cc(/C=C/c2sc3ccccc3[n+]2C)ccc1O.[I-] , thanks.
96

----------
Measured inhibition of individual entries
tested on: c-di-GMP G-quadruplex; test: Induction of c-di-GMP G-quadruplex formation in Pseudomonas aeruginosa PAO1 harboring wspF gene mutation assessed as inhibition of biofilm formation at 1.25 uM incubated for 20 hrs by crystal violet staining assay relative to control; assay type: nucleic-acid assay
Give just the number in %; leave the unit off.

// known answers, use as guide
In [3]: df
Out[3]:
                            compound_smiles  observed_value
0      C[n+]1c(/C=C/c2ccc(N)cc2)ccc2ccccc21            2.11
1          C[n+]1c(/C=C/c2ccccc2)sc2ccccc21            19.5
2       C[n+]1c(/C=C/c2cc[nH]c2)ccc2ccccc21            22.2
3       COc1ccc(/C=C/c2ccc3ccccc3[n+]2C)cc1           -9.62
4  COc1cc(/C=C/c2sc3ccccc3[n+]2C)ccc1O.[I-]            62.2

inhibition lookup needed for C[n+]1c(/C=C/c2ccc(O)c(F)c2)sc2ccccc21 , thanks.
-7.67

And then C[n+]1c(/C=C/c2ccc(O)cc2)ccc2ccccc21 , what is it?
13.4

----------
test system: Quadruplex DNA; assay: Induction of c-di-GMP G-quadruplex formation (unknown origin) measured at 300 nanometer by CD spectroscopy; type: nucleic-acid assay
Activity calls are given as the source filed them. The rule behind the calls is not given here.
Respond only with the outcome that fits, drawn from True (active), False (inactive)

The examples below pair each entry with its known result.
                            compound_smiles  category
0         C[n+]1c(/C=C/c2cnccn2)ccc2ccccc21      True
1       C[n+]1c(/C=C/c2cc[nH]c2)ccc2ccccc21      True
2  C[n+]1c(/C=C/c2ccc(N3CCOCC3)cc2)ccc2ccccc21     False
3         C[n+]1c(/C=C/c2ccncc2)ccc2ccccc21     False
4  C[n+]1c(/C=C/c2cc(Br)c(O)c(Br)c2)sc2ccccc21     False
5     CN(C)c1ccc(/C=C/c2sc3ccccc3[n+]2C)cc1     False
6   C[n+]1c(/C=C/c2ccc(O)c(F)c2)ccc2ccccc21     False
7    C[n+]1c(/C=C/c2ccc(O)c(O)c2)sc2ccccc21      True
8       C[n+]1c(/C=C/c2ccc(O)cc2)sc2ccccc21      True
9          C[n+]1c(/C=C/c2ccncc2)sc2ccccc21     False

Query: recorded result category for C[n+]1c(/C=C/c2cc[nH]c2)sc2ccccc21 in this test
True

And then CN1CCN(c2ccc(/C=C/c3ccc4ccccc4[n+]3C)cc2)CC1 , what is it?
False

And then C[n+]1c(/C=C/c2ccccc2)ccc2ccccc21 , what is it?
False

And then COc1ccc(/C=C/c2sc3ccccc3[n+]2C)cc1 , what is it?
False

And then C[n+]1c(/C=C/c2ccc(O)cc2)ccc2ccccc21 , what is it?
True

And then C[n+]1c(/C=C/c2ccc(O)c(F)c2)sc2ccccc21 , what is it?
False

----------
test system: c-di-GMP G-quadruplex; experiment: Induction of c-di-GMP G-quadruplex formation in Pseudomonas aeruginosa PAO1 harboring wspF gene mutation assessed as inhibition of biofilm formation at 1.25 uM incubated for 20 hrs by crystal violet staining assay relative to control; assay type: nucleic-acid assay
Metric Name: inhibition (%)
Give just the number in %; leave the unit off.

// known answers, use as guide
                            compound_smiles  metric_name  result_unit  observed_value
0      C[n+]1c(/C=C/c2ccc(Br)cc2)sc2ccccc21   inhibition            %           -4.77
1        COc1ccc(/C=C/c2sc3ccccc3[n+]2C)cc1   inhibition            %           -4.78
2          C[n+]1c(/C=C/c2cnccn2)sc2ccccc21   inhibition            %            11.4
3         C[n+]1c(/C=C/c2cnccn2)ccc2ccccc21   inhibition            %            8.36
4      C[n+]1c(/C=C/c2ccc(F)cc2)ccc2ccccc21   inhibition            %            21.3
5       C[n+]1c(/C=C/c2ccc(O)cc2)sc2ccccc21   inhibition            %            10.5
6  C[n+]1c(/C=C/c2ccc(N3CCOCC3)cc2)sc2ccccc21   inhibition            %            2.71

Note: attention shifts to another entry.
inhibition lookup needed for C[n+]1c(/C=C/c2ccccc2)ccc2ccccc21 , thanks.
18.8

----------
test system: Quadruplex DNA; assay: Induction of c-di-GMP G-quadruplex formation (unknown origin) measured at 300 nanometer by CD spectroscopy; format: nucleic-acid assay
Calls of active or inactive are those of the source. The rule behind the calls is not given here.
Respond only with the outcome that fits, drawn from active, inactive

The examples below pair each entry with its known result.
                            compound_smiles  category
0      COc1cc(/C=C/c2ccc3ccccc3[n+]2C)ccc1O    active
1  CN1CCN(c2ccc(/C=C/c3sc4ccccc4[n+]3C)cc2)CC1  inactive
2          C[n+]1c(/C=C/c2ccccc2)sc2ccccc21  inactive

Switching to the query record.
Query: recorded result category for C[n+]1c(/C=C/c2cc(Br)c(O)c(Br)c2)ccc2ccccc21 in this test
inactive
